System: GalNAc-T3
Assay: Inhibition of GalNAc-T3 activities with EA2 acceptor substrate
Assay type: biochemical, human
Settings: donor UDP-Gal; inhibitors 230 mM; EA2 acceptor; without inhibitor 6.3

- Compound: "CC(=O)N[C@H]1C(O)O[C@H](CO)[C@H](O)[C@@H]1O (stereo partly shown) [GalNAc, N-acetylgalactosamine]"
  Activity in the presence of inhibitors (nmol/min/mL): 2.5
- Compound: "CC(=O)N[C@H]1C(O)O[C@H](CO)[C@@H](O)[C@@H]1O (stereo partly shown) [GlcNAc]"
  Activity in the presence of inhibitors (nmol/min/mL): 7
- Compound: "C[C@@H]1OC(O)[C@@H](O)[C@H](O)[C@@H]1O (stereo partly shown) [Fuc]"
  Activity in the presence of inhibitors (nmol/min/mL): 6.5
- Compound: "OC[C@H]1OC(O)[C@H](O)[C@@H](O)[C@H]1O (stereo partly shown) [Gal]"
  Activity in the presence of inhibitors (nmol/min/mL): 7.3

* * *

Measured Activity in the presence of inhibitors, listed per entry for reference.
Test system: GalNAc-T2
Assay: Inhibition of GalNAc-T2 activities with Muc2 acceptor substrate
Type: biochemical, human
Conditions: donor UDP-Gal; inhibitors 230 mM; Muc2 acceptor; without inhibitor 90

- Compound: "CC(=O)N[C@H]1C(O)O[C@H](CO)[C@H](O)[C@@H]1O (stereo partly shown) [GalNAc, N-acetylgalactosamine]"
  Activity in the presence of inhibitors [nmol/min/mL]: 24
- Compound: "CC(=O)N[C@H]1C(O)O[C@H](CO)[C@@H](O)[C@@H]1O (stereo partly shown) [GlcNAc]"
  Activity in the presence of inhibitors [nmol/min/mL]: 68
- Compound: "C[C@@H]1OC(O)[C@@H](O)[C@H](O)[C@@H]1O (stereo partly shown) [Fuc]"
  Activity in the presence of inhibitors [nmol/min/mL]: 89
- Compound: "OC[C@H]1OC(O)[C@H](O)[C@@H](O)[C@H]1O (stereo partly shown) [Gal]"
  Activity in the presence of inhibitors [nmol/min/mL]: 89
